- assay: Antioxidizing action for salad oil (lipid peroxide, Yagi's method)
- condition: 1 mg/ml, 180° C. for 40 min.
Reported Quantity of lipid peroxide values for the following compounds.
measured endpoint: Quantity of lipid peroxide (nmol/mL)

CC1(C)C[C@@H](O)[C@]2(C)CC[C@]3(C)C(=CC[C@@H]4[C@@]5(C)CC[C@H](O[C@@H]6O[C@H](C(=O)O)[C@@H](O)[C@H](O)[C@H]6O[C@@H]6O[C@H](CO)[C@H](O)[C@H](O)[C@H]6O)[C@](C)(CO)[C@@H]5CC[C@]43C)[C@@H]2C1; 8.8
CC1(C)C[C@H]2C3=CC[C@@H]4[C@@]5(C)CC[C@H](O[C@@H]6O[C@H](C(=O)O)[C@@H](O)[C@H](O)[C@H]6O[C@@H]6O[C@H](CO)[C@H](O)[C@H](O)[C@H]6O)[C@](C)(CO)[C@@H]5CC[C@@]4(C)[C@]3(C)CC[C@@]2(C)[C@H](O[C@@H]2OC[C@H](O)[C@H](O[C@@H]3O[C@H](CO)[C@@H](O)[C@H](O)[C@H]3O)[C@H]2O)[C@@H]1O; 38.8
CC1(C)C[C@H]2C3=CC[C@@H]4[C@@]5(C)CC[C@H](O[C@@H]6O[C@H](C(=O)O)[C@@H](O)[C@H](O)[C@H]6O[C@@H]6O[C@H](CO)[C@H](O)[C@H](O)[C@H]6O[C@@H]6O[C@H](CO)[C@@H](O)[C@H](O)[C@H]6O)[C@](C)(CO)[C@@H]5CC[C@@]4(C)[C@]3(C)CC[C@@]2(C)[C@H](O[C@@H]2OC[C@H](O)[C@H](O[C@@H]3O[C@H](CO)[C@@H](O)[C@H](O)[C@H]3O)[C@H]2O)[C@@H]1O; 13.8
C[C@@H]1O[C@@H](O[C@H]2[C@H](O[C@H]3[C@H](O[C@H]4CC[C@@]5(C)[C@@H](CC[C@]6(C)[C@@H]5CC=C5[C@@H]7CC(C)(C)C[C@@H](O)[C@]7(C)CC[C@]56C)[C@@]4(C)CO)O[C@H](C(=O)O)[C@@H](O)[C@@H]3O)OC[C@H](O)[C@@H]2O)[C@H](O)[C@H](O)[C@H]1O; 80.6

###

- assay: Antioxidizing action for salad oil (lipid peroxide, Yagi's method)
- condition: 1 mg/ml, 180° C. for 40 min.
- Method: Salad oil: Product of Nisshin Seiyu Co., Ltd., Japan. Test oils were prepared by using various kinds of saponin components which were added into the salad oil in the amounts of 1 mg/ml and 0.1 mg/ml. These test oils and a control oil containing no saponin component were heated at 180° C. for 40 minutes, while oxygen was being blown thereinto. After they were cooled, the quantities of the lipid peroxides formed in the oils were determined by the Yagi's method [K. Yagi, Biochemie.
measured endpoint: Quantity of lipid peroxide

C[C@@H]1O[C@@H](O[C@H]2[C@H](O[C@H]3[C@H](O[C@H]4CC[C@@]5(C)[C@@H](CC[C@]6(C)[C@@H]5CC=C5[C@@H]7CC(C)(C)C[C@@H](O)[C@]7(C)CC[C@]56C)[C@@]4(C)CO)O[C@H](C(=O)O)[C@@H](O)[C@@H]3O)O[C@H](CO)[C@H](O)[C@@H]2O)[C@H](O)[C@H](O)[C@H]1O [Soyasaponin I]; 10.6 nmol/mL

###

- assay: Antioxidizing action for salad oil (lipid peroxide, Yagi's method)
- condition: 0.1 mg/ml, 180° C. for 40 min.
measured endpoint: Quantity of lipid peroxide (nmol/mL)

C[C@@H]1O[C@@H](O[C@H]2[C@H](O[C@H]3[C@H](O[C@H]4CC[C@@]5(C)[C@@H](CC[C@]6(C)[C@@H]5CC=C5[C@@H]7CC(C)(C)C[C@@H](O)[C@]7(C)CC[C@]56C)[C@@]4(C)CO)O[C@H](C(=O)O)[C@@H](O)[C@@H]3O)OC[C@H](O)[C@@H]2O)[C@H](O)[C@H](O)[C@H]1O; 46.3
CC1(C)C[C@@H](O)[C@]2(C)CC[C@]3(C)C(=CC[C@@H]4[C@@]5(C)CC[C@H](O[C@@H]6O[C@H](C(=O)O)[C@@H](O)[C@H](O)[C@H]6O[C@@H]6O[C@H](CO)[C@H](O)[C@H](O)[C@H]6O)[C@](C)(CO)[C@@H]5CC[C@]43C)[C@@H]2C1; 45.6

Attribution: patent US4524067A
